Assay: Selectivity index, ratio of CC50 for human 293T/ACE2 cells to EC50 for SARS-CoV-2 Omicron
Format: toxicity
Settings: read-out: Ratio CC50/EC50

molecule: C=C(C)[C@@H]1CC[C@]2(C(=O)Nc3ccc4ccccc4c3)CC[C@]3(C)[C@H](CC[C@@H]4[C@@]5(C)CC[C@H](O[C@@H]6O[C@H](CO)[C@@H](O[C@@H]7O[C@@H](C)[C@H](O)[C@@H](O)[C@H]7O)[C@H](O)[C@H]6O[C@@H]6O[C@@H](C)[C@H](O)[C@@H](O)[C@H]6O)C(C)(C)[C@@H]5CC[C@]43C)[C@@H]12
selectivity ratio: 73.6
--
molecule: C=C(C)[C@@H]1CC[C@]2(C(=O)Nc3ccccc3OC)CC[C@]3(C)[C@H](CC[C@@H]4[C@@]5(C)CC[C@H](O[C@@H]6O[C@H](CO)[C@@H](O[C@@H]7O[C@@H](C)[C@H](O)[C@@H](O)[C@H]7O)[C@H](O)[C@H]6O[C@@H]6O[C@@H](C)[C@H](O)[C@@H](O)[C@H]6O)C(C)(C)[C@@H]5CC[C@]43C)[C@@H]12
selectivity ratio: 13.6
